Listing: PBM binding z-score of selected sequences
# System: LXRa homodimer (NR concentration 270 nM)
# PROTOCOL_DESCRIPTION: PBM binding z-score (relative to random genomic background probes); higher = stronger binding; sequences stand for … in GC…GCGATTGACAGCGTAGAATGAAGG
Just the number, please.

ordered_residues=CAAACTAGGTCACAGAGGTTAAAGTCCGTGCGTA measurement_type="PBM binding z-score" reported=3.01
ordered_residues=ACTCGGAGGACAAAGGTGAGAGCTACGCCAGTGA measurement_type="PBM binding z-score" reported=-0.14

Next sequence, please.
Entry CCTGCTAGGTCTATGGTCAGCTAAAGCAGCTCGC : reported PBM binding z-score = ? -0.393
